The values you see were collected from paper PMC10535219.

Assay: Biodisposition of JV-DE1 and JV-MD2 delivered via NIODP (periorbital skin) in non-human primates
Assay type: in vivo, cynomolgus monkeys
Details: cynomolgus, cynomolgus monkey, eyelid/periorbital skin (upper eyelid), topical; JV-DE1; monkey; NIODP OD; 160.6 μg/eye; 3 h; read-out: Drug in OD Tissues, Eyelid/periorbital skin
quantityMeasured: concentration at 3 h (ng/g)

[[record]]
cpdsmiles = "CC(C)Oc1ccc(Cc2ccc(NC3=NCCN3)cc2)cc1"
quantitymeasured = "concentration at 3 h"
resultvalue = 32500


###

Experiment: Biodisposition of JV-DE1 eye drops in New Zealand rabbits (LC-MS/MS of plasma and ocular tissues)
Format: in vivo
Details: New Zealand, cornea, topical, 120 µg/eye; rabbit; single eye drop 120 μg/eye OD; 6 h; read-out: Drug in OD Tissues, Cornea
Procedure: The in-life procedures and sample collections were performed at Joinn Laboratory Inc. (Suzhou, China). A single dose of 50 µL (120 µg) per eye of the 0.24% JV-DE1 eye drops was applied to both eyes of the animals at time 0 using a pipet. This dose was chosen based on the maximum amount deliverable as an eye drop. Blood samples were collected from all five study animals at 0 h pre-dosing. […] Plasma samples were collected before each euthanization. […]
quantityMeasured: concentration at 6 h

[[record]]
cpdsmiles = "CC(C)Oc1ccc(Cc2ccc(NC3=NCCN3)cc2)cc1"
quantitymeasured = "concentration at 6 h"
resultvalue = "5130 ng/g"

